# MEASURED TARGET: full-length FOXC2 (Homo sapiens, UniProt Q99958)
# Construct: human FOXC2 protein (amino acid residues 1-501) with a C-terminal 6 histidine tag
# TEST SUMMARY: ELISA-like binding assay, immobilized full-length FOXC2
# SETUP CONDITIONS: biotinylated compound, immobilized recombinant full-length FOXC2, Qdot655 fluorescence

{"columns": ["SMILES CODE", "Kd, µM"],
 "data": [
  ["N=C(N)NCCCCNc1nc(Nc2ccc(Oc3ccccc3)cc2)nc(N2CCN(c3nc(N)nc(Nc4ccc(N5CCOCC5)cc4)n3)CC2)n1", 26]
]}

---

# MEASURED TARGET: DNA binding domain (DBD) of FOXC2 (Homo sapiens)
# Sequence (Q99958 60-163): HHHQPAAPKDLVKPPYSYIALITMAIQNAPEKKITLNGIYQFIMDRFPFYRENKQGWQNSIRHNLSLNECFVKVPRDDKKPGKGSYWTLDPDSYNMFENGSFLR
QUANTITY MEASURED: Kd

{"columns": ["COMPOUND", "OBSERVED"],
 "data": [
  ["N=C(N)NCCCCNc1nc(Nc2ccc(Oc3ccccc3)cc2)nc(N2CCN(c3nc(N)nc(Nc4ccc(N5CCOCC5)cc4)n3)CC2)n1 [MC-1-F2]", "> 100 µM"]
]}
